Values from ChEMBL document CHEMBL1201862

test system: T47D; test: NCI tumour cell line growth inhibition, 48 h
Calls of active or inactive are those of the source. Rule as the data show it: active = GI50 up to about 1.1 µM and inactive = higher.
Reported GI50 values are given for each entry in this list.

# COMPOUND, GI50
data = [
    ("O=[N+]([O-])c1cccc(CSc2nc(O)c3nc[nH]c3n2)c1", "> 100 µM (inactive)"),
    ("CN(C)c1ccc(/C=N\\NC(=O)CSCC(=O)N/N=C/c2ccc(N(C)C)cc2)cc1", "23.8 µM (inactive)"),
    ("CCOC(=O)C1(C#N)CC1", "> 100 µM (inactive)"),
    ("OC1C=C2C3CN(Cc4cc5c(cc43)OCO5)[C@H]2C[C@@H]1O (some centres undefined)", "1.16 µM (inactive)"),
]

====

system: DMS-114; assay: NCI tumour cell line growth inhibition, 48 h
Active and inactive are the calls of the source. Cut-off read from the data, not from the text of the source: active = GI50 up to about 1.1 µM and inactive = higher.
Labels: TRUE for active, FALSE for inactive

# COMPOUND, TEST SYSTEM, CATEGORY
data = [
    ("CN(C)CCC(=O)N1C/C(=C\\c2ccc(Cl)c(Cl)c2)C(=O)/C(=C/c2ccc(Cl)c(Cl)c2)C1", "DMS-114", "TRUE"),
    ("CCN(CC)CCCC(C)NC(=O)c1ccc2c(c1)C(=O)c1ccccc1C2=O (centres undefined)", "DMS-114", "FALSE"),
    ("CN(C)CCNCc1c2ccccc2c(CNCCN(C)C)c2ccccc12", "DMS-114", "FALSE"),
    ("COC(=O)C1=C(O)c2cc(OC)c(OC)c(OC)c2C(c2ccc3c(c2)OCO3)[C@@H]1C(=O)OC (some centres undefined)", "DMS-114", "FALSE"),
    ("CCC12CCC[C@@]13C=C[C@H](O3)C(C)(C)C2=O (some centres undefined)", "DMS-114", "FALSE"),
    ("Cc1ccccc1N1C(=O)/C(=C/c2ccc(N(CCC#N)CCC#N)cc2)N=C1c1cc([N+](=O)[O-])ccc1Cl", "DMS-114", "FALSE"),
    ("O=[N+]([O-])c1cc(Cl)ccc1OCc1ccccc1", "DMS-114", "FALSE"),
    ("COc1cc2ccc(CC(=O)O)cc2cc1OC", "DMS-114", "FALSE"),
    ("CC1=C(C(=O)Nc2c(C)cccc2C)C(c2ccccc2Cl)C(C(=O)Nc2c(C)cccc2C)=C(C)N1", "DMS-114", "FALSE"),
    ("O=c1c2cc(-c3ccccc3)sc2nc2sc(-c3ccccc3)nn12", "DMS-114", "FALSE"),
    ("Cn1nc(-c2ccccc2)c(C(=O)/C=C/c2ccccc2)c(N2CCOCC2)c1=O", "DMS-114", "FALSE"),
    ("CN1CCN(CCSC2Cc3cc(Cl)ccc3Sc3ccccc32)CC1 (centres undefined)", "DMS-114", "FALSE"),
    ("CCN(CC)CCNC(=O)c1ccc([N+](=O)[O-])cc1OC", "DMS-114", "FALSE"),
    ("CCOc1ccc(NC2=NC(=O)C(CC(=O)Nc3ccc(Cl)cc3Cl)S2)cc1 (centres undefined)", "DMS-114", "FALSE"),
]

====

test system: HT-29; experiment: NCI tumour cell line growth inhibition, 48 h
The source made the active and inactive calls. Rule as the data show it: active = GI50 up to about 1.1 µM and inactive = higher.
Labels: active, inactive

# COMPOUND, TEST SYSTEM, CATEGORY
records = [
    ("CC(=O)C1=CCC2c3[nH]c4ccccc4c3CCN2C1 (configuration not stated)", "HT-29", "inactive"),
    ("CCCc1cc(=O)oc2c3c(c4c(c12)OC(C)(C)CC4)O[C@H](C)[C@@H](C)[C@H]3O", "HT-29", "inactive"),
    ("COc1ccc(C2C(C#N)=C(O)NC(O)=C2C#N)cc1OC", "HT-29", "inactive"),
    ("CCCCCCCCCN1CCC(=O)C(C(=O)OC)C1 (configuration not stated)", "HT-29", "inactive"),
    ("NC(=O)c1cc(C2OC(CO)C(O)C2O)nn1-c1ccc([N+](=O)[O-])cc1 (configuration not stated)", "HT-29", "inactive"),
    ("Cc1nc2c(nc1C)C(=O)c1ccccc1C2=O", "HT-29", "inactive"),
    ("O=[N+]([O-])c1cccc(CSc2nc(O)c3nc[nH]c3n2)c1", "HT-29", "inactive"),
    ("CCOc1ccccc1NC(=O)C1=C(C)NC(C)=C(C(=O)Nc2ccccc2OCC)C1c1ccc([N+](=O)[O-])cc1", "HT-29", "inactive"),
    ("O=C1Oc2ccccc2C(=O)/C1=C/N1C(=O)/C(=C/c2ccc([N+](=O)[O-])cc2)SC1=S", "HT-29", "inactive"),
    ("C/C(=N\\NS(=O)(=O)c1ccc(C)cc1)c1ccccn1", "HT-29", "inactive"),
    ("CO[C@H]1C[C@H](O[C@H]2CC[C@]3(C=O)[C@H]4CC[C@]5(C)[C@@H](C6=CC(=O)OC6)CC[C@]5(O)[C@@H]4CC[C@]3(O)C2)O[C@H](C)[C@H]1O [CYMARIN]", "HT-29", "active"),
    ("CCc1n[nH]c(=O)n1/N=C/c1ccc(C)cc1", "HT-29", "inactive"),
    ("O=C1/C(=C\\c2ccccc2)CN(C(=O)CCN2CCCCC2)C/C1=C/c1ccccc1", "HT-29", "active"),
    ("Cc1ccc(NC(=O)C(=O)CC(=O)c2c(C)[n+]([O-])c3ccccc3[n+]2[O-])cc1C", "HT-29", "inactive"),
    ("COc1cc2c(cc1C)NC(=O)/C2=C\\c1cccnc1", "HT-29", "inactive"),
    ("O=[N+]([O-])c1ccc2c3ccccc3[s+]([O-])c2c1 (configuration not stated)", "HT-29", "inactive"),
    ("COc1cccc(C23CCN(C)C(CC(O)C2)C3)c1OC (configuration not stated)", "HT-29", "inactive"),
]

====

tested on: A549; test: NCI tumour cell line growth inhibition, 48 h
Activity calls are given as the source filed them. No stated cut-off is given here; in the data, active = GI50 up to about 1.1 µM and inactive = higher.

# COMPOUND, GI50
rows = [
    ("O=C(O)C(=O)/C=C\\c1ccc(Cl)cc1", "> 100 µM (inactive)"),
    ("OCC(O)C(O)C(O)C1SC(c2ccccc2)=NN1c1ccccc1 (configuration not stated)", "78.3 µM (inactive)"),
    ("OC1(C2(c3ccc(Cl)cc3)CCCC2)c2ccccc2C2=NCCN21 (configuration not stated)", "15.8 µM (inactive)"),
    ("CC1(C)[C@@H](Cn2ccc(=O)[nH]c2=O)CC[C@@]1(C)CO", "> 100 µM (inactive)"),
    ("O=C(Nc1cccc2c1[nH]c1c(-c3ccccc3)nccc12)c1ccccc1[N+](=O)[O-]", "24.4 µM (inactive)"),
    ("CC1CC[C@@]2(OC1)OC1CC3C4CCC5C[C@@H](OC6OC(CO)C(OC7OC(CO)C(O)C(OC8OC(CO)C(O)C(OC9OC(CO)C(O)C(O)C9O)C8O)C7OC7OC(CO)C(O)C(O)C7O)C(O)C6O)[C@H](O)C[C@]5(C)C4CC[C@]3(C)C1[C@@H]2C (some centres not stated)", "> 80.5 µM (inactive)"),
    ("O=C(c1ccccc1)c1ccc2c(c1)N=C(c1ccc(Cl)c(Cl)c1)CC(c1ccc3ccccc3c1)N2 (configuration not stated)", "> 100 µM (inactive)"),
]

====

tested on: IGROV-1; assay: NCI tumour cell line growth inhibition, 48 h
The source made the active and inactive calls. Rule as the data show it: active = GI50 up to about 1.1 µM and inactive = higher.
Listed here: items and their measured GI50.

# MOLECULE, GI50
rows = [
    ("O=C1/C(=C\\c2ccccc2)CN(C(=O)CCN2CCCCC2)C/C1=C/c1ccccc1", "1.95 µM (inactive)"),
    ("CN(Cc1cnc2nc(N)nc(N)c2n1)c1ccc(C(=O)NC(CCC(=O)NC(P(=O)(O)O)P(=O)(O)O)C(=O)O)cc1 (stereo unspecified)", "36.7 µM (inactive)"),
    ("O=C(O)CCC(NC(=O)c1ccc(Nc2nc3ccc(C(F)(F)F)cc3nc2-c2ccccc2)cc1)C(=O)O (stereo unspecified)", "> 100 µM (inactive)"),
    ("O=C(O)CS [THIOGLYCOLIC ACID]", "> 100 µM (inactive)"),
    ("CC12CCCCC1(C)C2Sc1ccccc1 (stereo unspecified)", "> 81.7 µM (inactive)"),
    ("Cn1c2c(cc(-c3ccccc3)c1=O)COc1ccccc1-2", "35.5 µM (inactive)"),
    ("O=C(O)/C(=C/c1c(O)ccc2ccccc12)c1csc(-c2nc(/C(=C\\c3c(O)ccc4ccccc34)C(=O)O)cs2)n1", "11.1 µM (inactive)"),
    ("O=c1c2cc(-c3ccccc3)sc2nc2sc(-c3ccccc3)nn12", "> 100 µM (inactive)"),
    ("O=[N+]([O-])c1cc(Cl)ccc1OCc1ccccc1", "> 100 µM (inactive)"),
    ("C1=C(c2ccccc2)O[C@H](COCc2ccccc2)C(OCc2ccccc2)[C@@H]1OCc1ccccc1 (stereo partly specified)", "> 10 µM (inactive)"),
    ("O=c1c2ccccc2oc2ccccc12.Oc1cccc2cccnc12", "3.73 µM (inactive)"),
]
